Measured values drawn from PubChem BioAssay AID1919008 for this set.

tested on: DMS-114 complex spheroids with HUVEC/MSC, growth % test/control; assay: Anticancer human tumor DMS-114 cell line growth inhibition [AhR]; conditions: second compound 0.316 µM; first compound 0.316 µM; active compounds read low;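 further: spheroids exposed to agents for 7 days before readout; 100% = DMSO vehicle control wells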
value kind: viability, T/C (%)
Give your result in % as a bare value.

Record excerpt, results attached:
[
  {
    "compound": "Nc1ccccc1NC(=O)c1ccc(CNC(=O)OCc2cccnc2)cc1 + CC(CO)NC(=O)c1cc(-c2ccc(Cl)cc2)nn(-c2cnn(C)c2)c1=O",
    "output unit": "%",
    "viability, T/C": 76.4
  },
  {
    "compound": "O=C(c1cc(Cc2n[nH]c(=O)c3ccccc23)ccc1F)N1CCN(C(=O)C2CC2)CC1 + CC(CO)NC(=O)c1cc(-c2ccc(Cl)cc2)nn(-c2cnn(C)c2)c1=O",
    "output unit": "%",
    "viability, T/C": 95.5
  },
  {
    "compound": "COc1ccc([C@@H](O)c2cc(-c3ncnc4cc(N5CCOCC5)ccc34)c(F)cc2Cl)nn1 + CC(CO)NC(=O)c1cc(-c2ccc(Cl)cc2)nn(-c2cnn(C)c2)c1=O",
    "output unit": "%",
    "viability, T/C": 90.4
  },
  {
    "compound": "CC1COCCN1c1cc(-c2ccnn2C)c2ccnc(-c3ccn[nH]3)c2n1 (centres undefined) + Cc1cncc(-c2nc(NCCc3c[nH]c4ccccc34)c3ncn(C(C)C)c3n2)c1",
    "output unit": "%",
    "viability, T/C": 19.8
  },
  {
    "compound": "O=C(c1cc(Cc2n[nH]c(=O)c3ccccc23)ccc1F)N1CCN(C(=O)C2CC2)CC1 + Cc1ccccc1N=Nc1ccc(NC(=O)c2ccnn2C)c(C)c1",
    "output unit": "%",
    "viability, T/C": 112
  },
  {
    "compound": "CC(C)c1c(-c2ccccc2)nc2c(C#N)c[nH]n2c1=O + Cc1ccccc1N=Nc1ccc(NC(=O)c2ccnn2C)c(C)c1",
    "output unit": "%",
    "viability, T/C": 98.9
  },
  {
    "compound": "NS(=O)(=O)OCC1CC(n2ccc3c(NC4CCc5ccccc54)ncnc32)CC1O (centres undefined) + Cc1cncc(-c2nc(NCCc3c[nH]c4ccccc34)c3ncn(C(C)C)c3n2)c1",
    "output unit": "%",
    "viability, T/C": 16.1
  },
  {
    "compound": "CC1COCCN1c1cc(C2(S(C)(=N)=O)CC2)nc(-c2ccnc3[nH]ccc23)n1 (centres undefined) + Cc1ccccc1N=Nc1ccc(NC(=O)c2ccnn2C)c(C)c1",
    "output unit": "%",
    "viability, T/C": 103
  }
]

Quote viability, T/C with test system DMS-114 complex spheroids with HUVEC/MSC, growth % test/control for COc1ccc([C@@H](O)c2cc(-c3ncnc4cc(N5CCOCC5)ccc34)c(F)cc2Cl)nn1 + Cc1cncc(-c2nc(NCCc3c[nH]c4ccccc34)c3ncn(C(C)C)c3n2)c1
96.2

Quote viability, T/C with test system DMS-114 complex spheroids with HUVEC/MSC, growth % test/control for O=C(C=Cc1cccc(S(=O)(=O)Nc2ccccc2)c1)NO + Cc1cncc(-c2nc(NCCc3c[nH]c4ccccc34)c3ncn(C(C)C)c3n2)c1
55.4

Quote viability, T/C with test system DMS-114 complex spheroids with HUVEC/MSC, growth % test/control for Nc1ccccc1NC(=O)c1ccc(CNC(=O)OCc2cccnc2)cc1 + Cc1cncc(-c2nc(NCCc3c[nH]c4ccccc34)c3ncn(C(C)C)c3n2)c1
61.4

Quote viability, T/C with test system DMS-114 complex spheroids with HUVEC/MSC, growth % test/control for Nc1ncn(C2CC(O)C(CO)O2)c(=O)n1 (centres undefined) + CC(CO)NC(=O)c1cc(-c2ccc(Cl)cc2)nn(-c2cnn(C)c2)c1=O
79.8

Quote viability, T/C with test system DMS-114 complex spheroids with HUVEC/MSC, growth % test/control for Nc1ncn(C2CC(O)C(CO)O2)c(=O)n1 (centres undefined) + Cc1cncc(-c2nc(NCCc3c[nH]c4ccccc34)c3ncn(C(C)C)c3n2)c1
74.3

Quote viability, T/C with test system DMS-114 complex spheroids with HUVEC/MSC, growth % test/control for COc1cc(C2c3cc4c(cc3C(OC3OC5COC(C)OC5C(O)C3O)C3COC(=O)C23)OCO4)cc(OC)c1O (centres undefined) + CC(CO)NC(=O)c1cc(-c2ccc(Cl)cc2)nn(-c2cnn(C)c2)c1=O
55

Quote viability, T/C with test system DMS-114 complex spheroids with HUVEC/MSC, growth % test/control for COc1cccc2c1C(=O)c1c(O)c3c(c(O)c1C2=O)CC(O)(C(=O)CO)CC3OC1CC(N)C(O)C(C)O1 (centres undefined) + Cc1cncc(-c2nc(NCCc3c[nH]c4ccccc34)c3ncn(C(C)C)c3n2)c1
4.84

Quote viability, T/C with test system DMS-114 complex spheroids with HUVEC/MSC, growth % test/control for COc1cc(Nc2ncc3c(n2)-c2ccc(Cl)cc2C(c2c(F)cccc2OC)=NC3)ccc1C(=O)O + CC(CO)NC(=O)c1cc(-c2ccc(Cl)cc2)nn(-c2cnn(C)c2)c1=O
58

Quote viability, T/C with test system DMS-114 complex spheroids with HUVEC/MSC, growth % test/control for CC(C)c1c(-c2ccccc2)nc2c(C#N)c[nH]n2c1=O + CC(CO)NC(=O)c1cc(-c2ccc(Cl)cc2)nn(-c2cnn(C)c2)c1=O
101

* * *

tested on: DMS-114 complex spheroids with HUVEC/MSC, growth % test/control; assay: Anticancer human tumor DMS-114 cell line growth inhibition [AhR]; conditions: second compound 0.316 µM; first compound 0.0316 µM; active compounds read low;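 further: spheroids exposed to agents for 7 days before readout; 100% = DMSO vehicle control wells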
# reported viability, T/C; entries follow
Give your result in % as a bare value.

[
  {
    "molecule": "CC1COCCN1c1cc(-c2ccnn2C)c2ccnc(-c3ccn[nH]3)c2n1 (centres undefined) + CC(CO)NC(=O)c1cc(-c2ccc(Cl)cc2)nn(-c2cnn(C)c2)c1=O",
    "system": "DMS-114 complex spheroids with HUVEC/MSC, growth % test/control",
    "output unit": "%",
    "value reported": 60.1
  },
  {
    "molecule": "O=C(C=Cc1cccc(S(=O)(=O)Nc2ccccc2)c1)NO + Cc1ccccc1N=Nc1ccc(NC(=O)c2ccnn2C)c(C)c1",
    "system": "DMS-114 complex spheroids with HUVEC/MSC, growth % test/control",
    "output unit": "%",
    "value reported": 96.6
  },
  {
    "molecule": "Nc1ccn(C2OC(CO)C(O)C2(F)F)c(=O)n1 (centres undefined) + CC(CO)NC(=O)c1cc(-c2ccc(Cl)cc2)nn(-c2cnn(C)c2)c1=O",
    "system": "DMS-114 complex spheroids with HUVEC/MSC, growth % test/control",
    "output unit": "%",
    "value reported": 11.8
  },
  {
    "molecule": "Nc1ccccc1NC(=O)c1ccc(CNC(=O)OCc2cccnc2)cc1 + Cc1ccccc1N=Nc1ccc(NC(=O)c2ccnn2C)c(C)c1",
    "system": "DMS-114 complex spheroids with HUVEC/MSC, growth % test/control",
    "output unit": "%",
    "value reported": 95.7
  },
  {
    "molecule": "O=C(c1cc(Cc2n[nH]c(=O)c3ccccc23)ccc1F)N1CCN(C(=O)C2CC2)CC1 + CC(CO)NC(=O)c1cc(-c2ccc(Cl)cc2)nn(-c2cnn(C)c2)c1=O",
    "system": "DMS-114 complex spheroids with HUVEC/MSC, growth % test/control",
    "output unit": "%",
    "value reported": 96.7
  }
]

Look up viability, T/C of CC1(C)CCC(CN2CCN(c3ccc(C(=O)NS(=O)(=O)c4ccc(NCC5CCOCC5)c([N+](=O)[O-])c4)c(Oc4cnc5[nH]ccc5c4)c3)CC2)=C(c2ccc(Cl)cc2)C1 + Cc1cncc(-c2nc(NCCc3c[nH]c4ccccc34)c3ncn(C(C)C)c3n2)c1 and report it.
91.5

Look up viability, T/C of CC(C)c1c(-c2ccccc2)nc2c(C#N)c[nH]n2c1=O + CC(CO)NC(=O)c1cc(-c2ccc(Cl)cc2)nn(-c2cnn(C)c2)c1=O and report it.
96.8

Look up viability, T/C of COc1cccc2c1C(=O)c1c(O)c3c(c(O)c1C2=O)CC(O)(C(=O)CO)CC3OC1CC(N)C(O)C(C)O1 (centres undefined) + Cc1cncc(-c2nc(NCCc3c[nH]c4ccccc34)c3ncn(C(C)C)c3n2)c1 and report it.
26.7

* * *

system: DMS-114 complex spheroids with HUVEC/MSC, growth % test/control; assay: Anticancer human tumor DMS-114 cell line growth inhibition [AhR]; conditions: second compound 3.16 µM; first compound 1 µM; active compounds read low;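 further: spheroids exposed to agents for 7 days before readout; 100% = DMSO vehicle control wells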
# reported viability, T/C; entries follow
Give your result in % as a bare value.

[
  {
    "compound": "CC1COCCN1c1cc(-c2ccnn2C)c2ccnc(-c3ccn[nH]3)c2n1 (configuration not stated) + CC(CO)NC(=O)c1cc(-c2ccc(Cl)cc2)nn(-c2cnn(C)c2)c1=O",
    "system": "DMS-114 complex spheroids with HUVEC/MSC, growth % test/control",
    "output unit": "%",
    "value reported": 13.9
  },
  {
    "compound": "NS(=O)(=O)OCC1CC(n2ccc3c(NC4CCc5ccccc54)ncnc32)CC1O (configuration not stated) + Cc1ccccc1N=Nc1ccc(NC(=O)c2ccnn2C)c(C)c1",
    "system": "DMS-114 complex spheroids with HUVEC/MSC, growth % test/control",
    "output unit": "%",
    "value reported": 24.1
  },
  {
    "compound": "COc1cc(Nc2ncc3c(n2)-c2ccc(Cl)cc2C(c2c(F)cccc2OC)=NC3)ccc1C(=O)O + CC(CO)NC(=O)c1cc(-c2ccc(Cl)cc2)nn(-c2cnn(C)c2)c1=O",
    "system": "DMS-114 complex spheroids with HUVEC/MSC, growth % test/control",
    "output unit": "%",
    "value reported": 62.3
  },
  {
    "compound": "Nc1ccn(C2OC(CO)C(O)C2(F)F)c(=O)n1 (configuration not stated) + Cc1cncc(-c2nc(NCCc3c[nH]c4ccccc34)c3ncn(C(C)C)c3n2)c1",
    "system": "DMS-114 complex spheroids with HUVEC/MSC, growth % test/control",
    "output unit": "%",
    "value reported": 8.92
  },
  {
    "compound": "O=C(c1cc(Cc2n[nH]c(=O)c3ccccc23)ccc1F)N1CCN(C(=O)C2CC2)CC1 + CC(CO)NC(=O)c1cc(-c2ccc(Cl)cc2)nn(-c2cnn(C)c2)c1=O",
    "system": "DMS-114 complex spheroids with HUVEC/MSC, growth % test/control",
    "output unit": "%",
    "value reported": 93.3
  }
]

Look up viability, T/C of O=C(C=Cc1cccc(S(=O)(=O)Nc2ccccc2)c1)NO + CC(CO)NC(=O)c1cc(-c2ccc(Cl)cc2)nn(-c2cnn(C)c2)c1=O and report it.
29.9

Look up viability, T/C of COc1cc(Nc2ncc3c(n2)-c2ccc(Cl)cc2C(c2c(F)cccc2OC)=NC3)ccc1C(=O)O + Cc1cncc(-c2nc(NCCc3c[nH]c4ccccc34)c3ncn(C(C)C)c3n2)c1 and report it.
57.2

Look up viability, T/C of CC1COCCN1c1cc(C2(S(C)(=N)=O)CC2)nc(-c2ccnc3[nH]ccc23)n1 (configuration not stated) + Cc1cncc(-c2nc(NCCc3c[nH]c4ccccc34)c3ncn(C(C)C)c3n2)c1 and report it.
81.1

Look up viability, T/C of COc1cc(Nc2ncc3c(n2)-c2ccc(Cl)cc2C(c2c(F)cccc2OC)=NC3)ccc1C(=O)O + Cc1ccccc1N=Nc1ccc(NC(=O)c2ccnn2C)c(C)c1 and report it.
95.8

Look up viability, T/C of COc1cc(C2c3cc4c(cc3C(OC3OC5COC(C)OC5C(O)C3O)C3COC(=O)C23)OCO4)cc(OC)c1O (configuration not stated) + Cc1ccccc1N=Nc1ccc(NC(=O)c2ccnn2C)c(C)c1 and report it.
59.4

Look up viability, T/C of COc1cccc2c1C(=O)c1c(O)c3c(c(O)c1C2=O)CC(O)(C(=O)CO)CC3OC1CC(N)C(O)C(C)O1 (configuration not stated) + Cc1ccccc1N=Nc1ccc(NC(=O)c2ccnn2C)c(C)c1 and report it.
1.97

Look up viability, T/C of O=C(c1cc(Cc2n[nH]c(=O)c3ccccc23)ccc1F)N1CCN(C(=O)C2CC2)CC1 + Cc1cncc(-c2nc(NCCc3c[nH]c4ccccc34)c3ncn(C(C)C)c3n2)c1 and report it.
85
